Reported growth values follow for various compounds
tested on: UO-31 renal; assay: NCI-60 one-dose screen, 48 h (100 = growth as untreated, 0 = no growth, -100 = all killed); details: 10 µM unless noted
Compounds without any hit were thinned out: in the full panel of roughly 83,000, 20% have a hit. Calls of active or inactive are those of the source. How the source made its calls: active means growth percent below 10; inactive means the rest.

As a guide, the following entries are already answered.
In [3]: df
Out[3]:
                                   compound  measure  experimental_result
0  C=C1CCC2C3(C)COC(c4cccc(Cl)c4)OC3CCC2(C)C1/C=C/C1=CCOC1=O (centres undefined)   growth     38.8% (inactive)
1  CC/C=C\C[C@H](O)C/C=C1/C(=O)C=C[C@@H]1C/C=C\CCCC(=O)OC(C)C   growth      -72.6% (active)
2  N=S(=O)(NC(=O)c1ccc(Cl)cc1Cl)c1ccc(Br)s1 (centres undefined)   growth     79.4% (inactive)

Now take the following compound into account.
[in] What value of growth has been recorded for this entry: CC/C=C\C[C@H](O)C/C=C1/C(=O)C=C[C@@H]1C/C=C\CCCC(=O)NC(C)C
[out] -61.8% (active)

====

system: SK-MEL-5 melanoma; experiment: NCI-60 one-dose screen, 48 h; conditions: 10 µM unless noted
About 83,000 compounds went through this panel and 20% of them were active in at least one assay; those are over-represented in the sample as a whole. The source made the active and inactive calls. The calls were made as follows: active = growth percent below 10; inactive = the rest.
Allowed answers: YES (active), NO (inactive)

In [3]: df
Out[3]:
                                   molecule  class_label
0  Nc1c(C(=O)Nc2cccc3c2OCCO3)sc2nc3c(cc12)C(=O)CCC3           NO
1             CCOC(=O)CC(=O)c1c(C)cc(C)cc1C           NO
2  CC1(C)CC(C(=O)OCCCCCCCCCCC[P+](c2ccccc2)(c2ccccc2)c2ccccc2)C(C)(C)N1O (stereo not drawn)          YES
3                       CCCN(CCC)CN(CCC)CCC           NO

[in] Hello, I am checking results. What call was entered for C#Cc1nc2ccccc2c(=O)[nH]1 ?
[out] YES

[in] Also COc1cc(NCCCCN=C(N)NC(N)=NC(C)C)c2ncccc2c1 ?
[out] NO

[in] Also CC(=O)/C(=C/c1cccc(Cl)c1)C(=O)c1ccccc1 ?
[out] NO

[in] Also C=C1C(=O)O[C@H]2[C@H]1CC/C(Cn1cc(Cn3ccc4ccccc43)nn1)=C\CC[C@@]1(C)O[C@@H]21 ?
[out] NO

====

system: UACC-257 melanoma; assay: NCI-60 one-dose screen, 48 h; details: 10 µM unless noted
The panel holds about 83,000 compounds, 20% with a hit somewhere; the sample as a whole holds those more often. Activity calls are given as the source filed them. How the source made its calls: active means growth percent below 10; inactive means the rest.
Allowed answers: true (1) for active, false (0) for inactive

Reference set (3 entries):
In [3]: df
Out[3]:
                                   molecule  class_label
0              CCNS(=O)(=O)c1ncnc2nc[nH]c12    false (0)
1  CCCCN(CCCC)CCC(C)(O)c1cc2ccccc2c2ccccc12 (stereo unspecified)    false (0)
2  CC(=O)C1=C(O)C=C2Oc3c(C(=O)/C=C/c4c(Cl)cccc4Cl)c(O)c(C)c(O)c3[C@]2(C)C1=O     true (1)

[in] Hello, I am checking results. What call was entered for CCOC(=O)c1c2c(n3ccc(NC(=O)CCN(CC)CC)cc13)C(=O)c1ncccc1C2=O ?
[out] false (0)

[in] Also CS(=O)(=O)c1c(Nc2ccccc2)n[nH]c1N ?
[out] false (0)

[in] Also Cc1cc(Nc2nc(N3CCNCC3)nc3ccccc23)n[nH]1 ?
[out] false (0)

[in] Also Cc1ccc(Nc2nc(N)nc(Nc3ccc4ccccc4c3)n2)cc1 ?
[out] false (0)

[in] Also O=C(CNC1C2CC3CC(C2)CC1C3)Sc1nnc2sc3ccccc3n12 (stereo unspecified) ?
[out] false (0)

[in] Also Nc1nc2ccc(-c3nc4ccc5[nH]ncc5c4c4c3CCC4)cc2s1 ?
[out] false (0)

[in] Also N#Cc1c2c(nc3n[nH]c(N)c13)CCCC2 ?
[out] false (0)

[in] Also CC1(C)CC(C(=O)OCCCCCCCCCCC[P+](c2ccccc2)(c2ccccc2)c2ccccc2)C(C)(C)N1O (stereo unspecified) ?
[out] true (1)

[in] Also COc1cccc(NC(=O)c2sc3nc4c(cc3c2N)CN(Cc2ccccc2)CC4)c1 ?
[out] false (0)

[in] Also CCOC(=O)C(=Cc1ccccc1F)C(=O)OCC ?
[out] false (0)
